Biological target: hMC1-R (human) (UniProt Q01726)
Sequence (Q01726 whole entry): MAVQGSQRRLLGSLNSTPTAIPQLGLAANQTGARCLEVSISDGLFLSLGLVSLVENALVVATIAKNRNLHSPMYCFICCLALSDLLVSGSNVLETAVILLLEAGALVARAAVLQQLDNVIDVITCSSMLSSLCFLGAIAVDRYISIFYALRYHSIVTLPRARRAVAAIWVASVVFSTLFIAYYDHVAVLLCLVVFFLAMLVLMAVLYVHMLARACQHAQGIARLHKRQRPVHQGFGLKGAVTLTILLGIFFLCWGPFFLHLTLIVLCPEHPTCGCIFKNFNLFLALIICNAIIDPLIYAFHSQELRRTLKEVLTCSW
Assay: cell-based or functional assay
Listed next: entries and their corresponding cAMP EC50.

BINDER: CEHXRXACPPKDXYGRKKRRQRRR (N-terminal acetyl; X4=D-2-Nal; X6=1-Nal; X13=β-Ala; Cys1-Cys8 disulfide; C-terminal amide)
cAMP EC50: 43.3
//
BINDER: XCAHFRWCXXYGRKKRRQRRR (N-terminal acetyl; X1=Nle; D-Ala3; D-Phe5; X9=Doc; X10=Doc; Cys2-Cys8 disulfide; C-terminal amide) [Ac-Nle-c(Cys-D-Ala-His-D-Phe-Arg-Trp-Cys)-(Doc)2-Tyr-Gly-Arg-Lys-Lys-Arg-Arg-Gln-Arg-Arg-Arg-NH2]
cAMP EC50: 4.7
//
BINDER: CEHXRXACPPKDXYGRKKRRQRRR (N-terminal acetyl; X4=D-2-Nal; X6=Bal; X13=β-Ala; Cys1-Cys8 disulfide; C-terminal amide)
cAMP EC50: 37.9

This collection of values is drawn from patent US20120135923A1.
